Experiment: NCI Yeast Anticancer Drug Screen. Data for the cln2 rad14 strain (AID 165);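 also: 0% = growth equal to vehicle treated cultures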
Conditions: S. cerevisiae cln2 rad14 strain, at 50.0 µM, stronger effect = higher value
Description: Growth inhibition of yeast strains with defined genetic alterations is measured as a screen for potential anti-cancer activity. Selected strains with alterations in DNA damage repair or cell cycle control were exposed to compounds and growth inhibition was measured relative to vehicle treated controls. The strain used in this assay is cln2 rad14
The panel holds about 79,000 compounds, 15% with a hit somewhere; the sample as a whole holds those more often.
Readings of growth inhibition for the listed compounds

| compound | growth inhibition / % |
| --- | --- |
| O=C(CC(=O)N1N=C(n2ccc3ccccc32)CC1c1ccccc1)Nc1cccc(Cl)c1 (stereo not given) | 12.1 |
| CNC(=O)OCc1nc(SSC(C)(C)C)n(C)c1COC(=O)NC | 1.9 |
| C#CC(CCC)NCCCC (stereo not given) | 3.05 |
| CO[C@@H]1[C@@H](O)c2ccccc2N1C(C)=O | 8.15 |
| Cc1cc(Cl)nc(/N=C(\N)Nc2ccc(Cl)c(Cl)c2)n1 | -11.7 |
| CCNC1=C(OC)C(=O)C(NCC)=C(OC)C1=O | -33.6 |
| O=C(O)/C=C(\Br)C(=O)O | -11.4 |
| CC1(c2ccccc2)OCCCO1 | 0.65 |
| CCC1CC(=O)NC(=O)NC1=O (stereo not given) | 12.1 |
| COC(=O)CCc1ccc(CCC(=O)OC)cc1 | 4.2 |
| C=C(C)C1CCC2(C)CC3C(=C)CC(O)C(O)C3(C)CCC12 (stereo not given) | 90 |
| CC(=O)N(C)C1=C(Sc2ccc([N+](=O)[O-])cc2)C(=O)c2ccccc2C1=O | 99 |
| CCN(CC)Cc1cc(Nc2cc(C)nc(/N=C(\N)Nc3cc(Cl)cc(Cl)c3)n2)ccc1O | 10.2 |
| CC1CCC(CCBr)CC1 (stereo not given) | -3.15 |
| CC(C)(C)CC(C(=O)O)[Si](C)(C)C (stereo not given) | -1.25 |

----------
Experiment: NCI Yeast Anticancer Drug Screen. Data for the sgs1 mgt1 strain (AID 161);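 also: 0% = growth of cultures given vehicle only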
Conditions: S. cerevisiae sgs1 mgt1 strain, at 50.0 µM, stronger effect = higher value
Protocol: Growth inhibition of yeast strains with defined genetic alterations is measured as a screen for potential anti-cancer activity. Selected strains with alterations in DNA damage repair or cell cycle control were exposed to compounds and growth inhibition was measured relative to vehicle treated controls. The strain used in this assay is sgs1 mgt1
Compounds without any hit were thinned out: in the full panel of roughly 79,000, 15% have a hit.

| compound | unit-of-measure | growth inhibition |
| --- | --- | --- |
| O=c1ccccc2cccc(O)c12 | % | -1.35 |
| N#Cc1ccc(Br)cc1 | % | 16.6 |
| C=CCC1=C2CCCCC2CCC1=O (stereo unspecified) | % | -15.9 |
| O=C(Nc1cccc2ccccc12)c1ccc(Cl)c(Cl)c1 | % | 52.8 |
| CC(=O)CCC(CC(=O)O)C(C)C (stereo unspecified) | % | 14.9 |
| O=C(O)CC(C(=O)O)c1ccccc1[N+](=O)[O-] (stereo unspecified) | % | -24.2 |
| CCCN(CCC)S(=O)(=O)c1ccc(NC(=O)OC(CC)c2ccco2)cc1 (stereo unspecified) | % | 8 |
| CCOc1c(N=Nc2cccc([N+](=O)[O-])c2)c(C)nn1C(N)=S | % | -7.85 |
| COC(=O)C1N=CSCC1(C)O (stereo unspecified) | % | -25.9 |
| C=C1C(=O)O[C@H]2[C@H]1[C@@H](OC(=O)C=C(C)C)CC1=C[C@@H](C[C@@]3(C)O[C@@H]23)OC1=O | % | 7.4 |
| COc1ccc(Cl)cc1NC(=O)c1cccc([N+](=O)[O-])c1O | % | 1.75 |
| CCC(CCC(=O)c1ccccc1)[N+](=O)[O-] (stereo unspecified) | % | -5.7 |
| O=c1[nH]c2cc(Cl)ccc2nc1C1=C(O)c2ccccc2C1 | % | 23.6 |
| O=C(O)C(c1ccccc1)C(O)C1CCCC1 (stereo unspecified) | % | 1.05 |
| CC1(C)CC(C(N)=O)C(C)(C)N1O (stereo unspecified) | % | 23.6 |
| CCOC(=O)C(=CNC(=S)Nc1cc(C)ccc1C)C(=O)OCC | % | -14.1 |
| N#CCCn1[nH]c(=O)c(Cl)c(Cl)c1=O | % | -3.9 |
| CN(CCCO)CCCO | % | 0.7 |
| C=CCCCCC1CCC2CCC(CCCCC=C)N12 (stereo unspecified) | % | 38.6 |
| OCC1CCCCCCCCCC1 | % | 29.8 |
| CN(C)c1ccc(-c2nc(N)nc3c2CCCC3)cc1 | % | -13.3 |
| O=C(C[n+]1ccccc1)NNC(=O)/C(=C/c1ccc2c(c1)OCO2)NC(=O)c1ccccc1 | % | -13.7 |
| C=C1C(=O)OC2/C=C(/CO)C3(O)CC(O)C(C)(CC(OC(=O)/C(C)=C/C)C12)O3 (stereo unspecified) | % | 14.9 |
| CC1(CO)CCCC2(C)C3=CC(=O)CCC3CCC12 (stereo unspecified) | % | -12.8 |
| CCCN=C(N)NC#N | % | -2.4 |
| CCOC(=O)C(Cc1cn(S(=O)(=O)c2ccc(C)cc2)cn1)P(=O)(OCC)OCC (stereo unspecified) | % | -13.4 |
| NC(CC(=O)O)c1ccc(Cl)cc1 (stereo unspecified) | % | -14.4 |
| O=NC1C(Cl)C2CC1C1C(Cl)C(Cl)CC21 (stereo unspecified) | % | 52.9 |
| C=CCc1cc(C(C)=O)ccc1O | % | -9.75 |
| C=CCOc1cc(=O)[nH]c2ccccc12 | % | -0.9 |
| O=S(=O)(NO)c1ccc(Cl)cc1 | % | 8.35 |
| Cn1c(NC(=O)C(=O)NC23CC4CC(CC(C4)C2)C3)nc2ccccc21 | % | -9.7 |
| CSc1nn(C)c2cc(C)c3ccccc3[n+]12 | % | -10.2 |
| CSc1ccc(C(N)=O)cn1 | % | -7.05 |
| COc1ccc2c(c1)C(C)(C(N)=O)CCC2 (stereo unspecified) | % | 3.7 |
| CCN(CC)c1ccc(/C=C2\CCc3ccc([N+](=O)[O-])cc3C2=O)cc1 | % | 6.2 |
